Numbers sourced from patent US20210317109A1.

assay: Pharmacokinetic properties of test compound in mice (oral); type: in vivo, C57BL male mice; conditions: mice, oral 10 mg/kg, plasma
Counter-ions that a name gives are not always drawn.
assay.endpoint: Time to peak (h)
Value expressed in h; do not type the unit.

Q: Recorded Time to peak of CCOC(=O)Cc1coc2ccc3cc(OCCN(C)C)ccc3c12 [Hydrochloride of WX008] , please.
Result: 1.00

Q: Next molecule: O=C1CCC(c2coc3ccc4cc(OCCN5CCOCC5)ccc4c23)C(=O)N1 (centres unmarked) [Hydrochloride of WX020]
Result: 0.25

###

Test: Pharmacokinetic properties of test compound in mice (oral)
Type: in vivo, C57BL male mice
Conditions: mice, oral 10 mg/kg, plasma
Description: In this study, C57BL male mice were selected as the test animals. A LC-MS/MS method was used to quantitatively determine the drug concentration in the plasma after oral administration of the test compound and the reference compound, to evaluate the pharmacokinetic profile of the test compound in mice. C57Balb/c (C57) mice (male, 20-30 g, 7-10 weeks old, Beijing Vital River or Shanghai SLAC). […]
Where a name gives a salt, the structure may show the parent alone.
Entries and their Peak concentration
Respond with the bare value in µM.

molecule="O=C1CCC(c2coc3ccc4[nH]ccc4c23)C(=O)N1 (centres unmarked)" result=12.95
molecule="O=C1CCC(c2coc3ccc4ccccc4c23)C(=O)N1 (centres unmarked)" result=2.83

Q: Would you kindly share the measured Peak concentration for O=C1CCC(c2coc3ccc4occc4c23)C(=O)N1 (centres unmarked) ?
Result: 6.54

Q: Input CCOC(=O)Cc1coc2ccc3cc(OCCN(C)C)ccc3c12 [Hydrochloride of WX008]
Result: 4.88

Q: Try this molecule too: O=C1CCC(c2coc3ccc4cc(OCCN5CCOCC5)ccc4c23)C(=O)N1 (centres unmarked) [Hydrochloride of WX020]
Result: 8.56

###

Test: Pharmacokinetic properties of test compound in mice (oral)
Assay type: in vivo, C57BL male mice
Settings: mice, oral 10 mg/kg, plasma
Text: In this study, C57BL male mice were selected as the test animals. A LC-MS/MS method was used to quantitatively determine the drug concentration in the plasma after oral administration of the test compound and the reference compound, to evaluate the pharmacokinetic profile of the test compound in mice. C57Balb/c (C57) mice (male, 20-30 g, 7-10 weeks old, Beijing Vital River or Shanghai SLAC). […]
Items are presented alongside their recorded Time to peak.
Field: numeric (h). Do not append units.

Study these solved cases before continuing.
compound="O=C1CCC(c2coc3ccc4occc4c23)C(=O)N1 (stereo not drawn) [WX004]" assay_endpoint="Time to peak" result=0.25
compound="O=C1CCC(c2coc3ccc4ccccc4c23)C(=O)N1 (stereo not drawn) [WX002]" assay_endpoint="Time to peak" result=0.50

Q: Item under review: O=C1CCC(c2coc3ccc4[nH]ccc4c23)C(=O)N1 (stereo not drawn) [WX007] . Reported Time to peak?
Result: 0.08
